target: PfCDPK1 (Plasmodium falciparum (isolate 3D7), UniProt P62344); assay: biochemical; conditions: read-out: PfCDPK1 (% inhibition @ 3 uM)
Entry flag: 1 if inhibition at 3 µM reaches 90%; -1 if it does not.

See these solved cases before continuing.
Does inhibition at 3 µM meet or surpass 90% for `O=C(CC1CCNCC1)Nc1nc2ccc(C(=O)c3ccccc3)cc2[nH]1` ?
-1

Does inhibition at 3 µM meet or surpass 90% for `COc1cc2ccccc2cc1-c1nn(C(C)C)c2ncnc(N)c12` ?
-1

Does inhibition at 3 µM meet or surpass 90% for `Cc1ccc(S(=O)(=O)Nc2ccc(-c3nn(-c4ccccc4)c4ncnc(N)c34)cc2)cc1` ?
-1

Continuing:
Does inhibition at 3 µM meet or surpass 90% for `CC(C)n1nc(-c2ccc3c(c2)OCO3)c2c(N)ncnc21` ?
1

Does inhibition at 3 µM meet or surpass 90% for `CC(C)(C)c1nc(-c2cnc3ccccc3c2)c2c(N)nccn12` ?
1

Does inhibition at 3 µM meet or surpass 90% for `CCOc1ccc2cc(-c3nn(CC4CCNCC4)c4ncnc(N)c34)ccc2c1` ?
1

Does inhibition at 3 µM meet or surpass 90% for `Nc1ncnc2c1c(-c1ccc(Cl)cc1)nn2CC1CCNCC1` ?
1

Does inhibition at 3 µM meet or surpass 90% for `Nc1ncnc2c1cnn2CC1CCNCC1` ?
-1

Does inhibition at 3 µM meet or surpass 90% for `O=C(CCCC1CCNCC1)Nc1nc2ccc(C(=O)c3ccccc3)cc2[nH]1` ?
-1

Does inhibition at 3 µM meet or surpass 90% for `NCCCC(=O)Nc1nc2ccc(C(=O)c3ccccc3)cc2[nH]1` ?
-1

Does inhibition at 3 µM meet or surpass 90% for `Cc1cccc2[nH]c(-c3nc(C(C)(C)C)n4ccnc(N)c34)cc12` ?
1

Does inhibition at 3 µM meet or surpass 90% for `Cn1ccc2cc(-c3nn(C(C)(C)C)c4ncnc(N)c34)ccc21` ?
1

Does inhibition at 3 µM meet or surpass 90% for `CC(C)(C)C(=O)Nc1ccc(-c2nn(C(C)(C)C)c3ncnc(N)c23)cc1` ?
1

Does inhibition at 3 µM meet or surpass 90% for `CCN1CCC(CCn2nc(Cc3cccc4ccccc34)c3c(N)ncnc32)CC1` ?
-1

Does inhibition at 3 µM meet or surpass 90% for `CCOc1ccc2cc(-c3nc(C(C)C)n4ccnc(N)c34)ccc2c1` ?
1

Does inhibition at 3 µM meet or surpass 90% for `Cn1ccc2cc(-c3nn(CC4CCNCC4)c4ncnc(N)c34)ccc21` ?
-1

Does inhibition at 3 µM meet or surpass 90% for `CC(C)(C)n1nc(-c2ccc(NC(=O)C3CCCC3)cc2)c2c(N)ncnc21` ?
1

Does inhibition at 3 µM meet or surpass 90% for `COc1ccc2cc(-c3nn(C(C)(C)C)c4ncnc(N)c34)ccc2c1` ?
1
